Reference for the values: ChEMBL document CHEMBL3792352

Experiment: Elimination half life in Sprague-Dawley rat at 1 mg/kg, caudal iv by LC/MS/MS analysis
Type: ADME, organism-based
Conditions: in vivo, read-out: beta t1/2 (converted)

| compound_structure_string | half-life |
| --- | --- |
| COc1ccc(C[C@H](NC(=O)c2cc(Cl)ccc2Cl)C(=O)N[C@@H](CC(C)C)B(O)O)c(OC)c1 | 7.24 h |
